// reported melting point for each item listed

Previously resolved entries follow.
Problem: Data request, read-out melting point, for COc1cc(N2CCOCC2)ccc1C(=O)O
Result: 158 to 160 °C

Problem: Looking for the measured melting point of O=C1CNc2ncc(I)cc2N1Cc1cc(F)ccc1C(F)(F)F , can you help?
Result: 244 to 245 °C

Problem: Tell me the measured melting point of CC(=O)SCC(CC(C)C)C(=O)NCCCCCCCC(=O)N[C@@H](CCCNC(=N)N)C(=O)O (stereo partly specified) , please.
Result: 85 to 102 °C

Problem: # query: melting point of entry Cc1noc(C)c1-c1ccc(OC2SCC(O)C(O)C2O)cn1 (stereo unspecified)
Result: 138 °C

Further cases:
Problem: Which value of melting point has been reported for CC(=O)OCc1cccc(N)c1I in the records?
Result: 80 to 81 °C

Problem: Can you share its melting point? I mean this compound: Cn1cc(C[C@H]2NC(=O)[C@@H](CCCN)NC2=O)c2ccccc21
Result: 148 °C

###

parameter_measured: melting point

Example results:
Problem: Please look up its melting point: O=C(O)CCSc1ccccc1CNC(=O)C1Cc2ccccc2N1S(=O)(=O)c1ccc(-c2cccc(C(F)(F)F)c2)cc1 (stereo not given)
Result: 85 to 89 °C

Problem: # lookup: melting point of COc1cc(Nc2c(C#N)cnc3cc(OCc4cccs4)c(OC)cc23)c(Cl)cc1Cl
Result: 194 to 196 °C

---
Problem: Consider the compound CN(C)C(=O)CON(Cc1ccc(F)cc1)C(=O)C1=C(O)C(=O)N(C)C1 and give its measured melting point.
Result: 147 to 149 °C

Problem: What value of melting point has been recorded for this entry: O=C1C(c2ccccc2)=C(c2ccccc2)C(=O)N1C1CCCCC1
Result: 159 to 160 °C

Problem: I'd like to know its melting point. The compound in question is COC(=O)c1ccc(N=Cc2ccccc2)cn1
Result: 84 to 89 °C

Problem: Fill blank: measured melting point of the compound CC(=O)Nc1cc(C(C)(C)C)cc(OCc2ccccc2)c1C is ____.
Result: 170 to 172 °C

Problem: Field request: melting point | item: CC(C)c1nsc(N=C(C#N)N(C)C)c1C#N
Result: 78 to 79 °C

Problem: Reported melting point, compound CN1CC(=O)N(c2cccnc2)C1=S : ____
Result: 149 to 151 °C

Problem: Using the record for Cc1nc(O)c(C)c(Cl)n1 , report its melting point.
Result: 224 to 225 °C

Problem: So what does the record say about melting point for CSCCN(C)C(=O)N(C)c1cnc(-c2cncc(F)c2)s1 ?
Result: 68 to 69 °C

###

parameter_measured: melting point

Past entries and their recorded results:
Problem: Data request, read-out melting point, for Cc1ccc(Sc2cncc3sc(C(=O)Nc4ccc(Cl)cc4)cc23)cc1
Result: 208 to 211 °C

Problem: Quick one: melting point of Clc1ccc(C#Cc2c3ccccc3c(C#Cc3ccc(Cl)cc3)c3ccccc23)cc1 ?
Result: 268 °C

Others:
Problem: Sample CC(C)(C)C(=O)NCCCOc1ccncc1 — what was its melting point?
Result: 71.5 to 72.5 °C

Problem: Data request, read-out melting point, for CN1CCC(=C2c3ccccc3CCc3ccc(CO)cc32)CC1
Result: 178 to 181 °C

Problem: # melting point lookup, item O=C(/C=C/c1c[nH]c2ccc(O)cc12)c1ccncc1
Result: 262 to 268 °C

Problem: For Nc1nc[nH]c(=O)c1O , what is its reported melting point?
Result: > 300 °C

Problem: Query (compound): Cc1ccc(OC2CCN(C(=O)CNc3ccc4[nH]c(=O)sc4c3)CC2)cc1 ; field requested: melting point
Result: 189 to 191 °C

Problem: Using the record for Cc1nc(-c2cccnc2)sc1-c1ccnc(Nc2cc(Cl)c(N3CCOCC3)c(Cl)c2)n1 , report its melting point.
Result: 276 to 278 °C

// provenance: a melting point compilation (Tetko et al.; mined from patent text by program, amines drawn as free bases though some values may be those of a salt)
